Target: Sucrase-isomaltase, intestinal (Rattus norvegicus, UniProt P23739)
Sequence (P23739 1-1013 limits assumed): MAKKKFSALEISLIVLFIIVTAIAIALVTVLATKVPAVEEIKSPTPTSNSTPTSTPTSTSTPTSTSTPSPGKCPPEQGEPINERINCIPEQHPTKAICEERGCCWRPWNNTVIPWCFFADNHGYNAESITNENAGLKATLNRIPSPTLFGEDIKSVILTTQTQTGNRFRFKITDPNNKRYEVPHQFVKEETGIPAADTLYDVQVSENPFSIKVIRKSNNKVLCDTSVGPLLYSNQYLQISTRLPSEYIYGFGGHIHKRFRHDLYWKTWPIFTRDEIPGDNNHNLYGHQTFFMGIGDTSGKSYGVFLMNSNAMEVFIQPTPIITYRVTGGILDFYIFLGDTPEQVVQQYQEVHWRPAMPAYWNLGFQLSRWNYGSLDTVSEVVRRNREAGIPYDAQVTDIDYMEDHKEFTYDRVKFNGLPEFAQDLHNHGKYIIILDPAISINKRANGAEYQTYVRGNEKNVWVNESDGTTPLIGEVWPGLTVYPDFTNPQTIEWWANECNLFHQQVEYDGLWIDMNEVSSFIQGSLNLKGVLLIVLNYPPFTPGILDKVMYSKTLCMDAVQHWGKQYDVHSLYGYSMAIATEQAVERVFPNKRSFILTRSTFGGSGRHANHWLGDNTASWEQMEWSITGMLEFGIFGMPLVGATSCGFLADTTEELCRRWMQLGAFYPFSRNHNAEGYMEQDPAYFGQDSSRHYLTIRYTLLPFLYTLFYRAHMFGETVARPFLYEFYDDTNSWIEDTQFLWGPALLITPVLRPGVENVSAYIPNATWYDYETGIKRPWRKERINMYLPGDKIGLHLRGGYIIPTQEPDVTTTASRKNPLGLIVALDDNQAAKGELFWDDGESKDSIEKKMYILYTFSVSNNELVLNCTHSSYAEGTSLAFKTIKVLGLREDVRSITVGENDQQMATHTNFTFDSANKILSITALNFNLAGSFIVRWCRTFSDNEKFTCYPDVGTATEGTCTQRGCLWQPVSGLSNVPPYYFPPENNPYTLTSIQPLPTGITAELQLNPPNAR
Sequence (P23739 1014-1841 limits assumed): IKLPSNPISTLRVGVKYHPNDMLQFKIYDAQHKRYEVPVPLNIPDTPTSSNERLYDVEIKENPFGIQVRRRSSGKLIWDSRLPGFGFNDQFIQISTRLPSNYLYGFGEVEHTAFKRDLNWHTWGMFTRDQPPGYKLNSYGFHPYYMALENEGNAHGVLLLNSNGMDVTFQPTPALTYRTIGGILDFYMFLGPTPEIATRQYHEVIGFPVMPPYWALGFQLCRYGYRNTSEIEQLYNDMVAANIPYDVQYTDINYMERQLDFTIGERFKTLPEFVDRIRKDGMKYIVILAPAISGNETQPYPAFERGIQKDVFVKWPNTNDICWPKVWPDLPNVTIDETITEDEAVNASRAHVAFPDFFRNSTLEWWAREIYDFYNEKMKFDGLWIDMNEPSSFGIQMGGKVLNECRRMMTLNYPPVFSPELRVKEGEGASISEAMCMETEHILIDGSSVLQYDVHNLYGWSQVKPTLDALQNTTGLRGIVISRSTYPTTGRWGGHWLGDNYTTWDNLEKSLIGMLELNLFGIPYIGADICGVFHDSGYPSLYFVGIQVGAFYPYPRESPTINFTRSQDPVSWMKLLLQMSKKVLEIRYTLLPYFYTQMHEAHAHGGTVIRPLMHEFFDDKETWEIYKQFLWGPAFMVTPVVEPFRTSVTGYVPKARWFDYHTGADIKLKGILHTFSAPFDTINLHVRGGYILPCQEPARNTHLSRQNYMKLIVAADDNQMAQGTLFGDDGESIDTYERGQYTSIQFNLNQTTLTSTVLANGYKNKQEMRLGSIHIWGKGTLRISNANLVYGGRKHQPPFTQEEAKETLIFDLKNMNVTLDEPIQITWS
value_type: IC50

GET /values?readout=IC50&item= O=[N+]([O-])c1ccc2[nH]c(-c3ccncc3)nc2c1
99.4 µM
